STUDY_TARGET: C3a anaphylatoxin chemotactic receptor (Homo sapiens, UniProt Q16581)
Sequence (Q16581 whole entry): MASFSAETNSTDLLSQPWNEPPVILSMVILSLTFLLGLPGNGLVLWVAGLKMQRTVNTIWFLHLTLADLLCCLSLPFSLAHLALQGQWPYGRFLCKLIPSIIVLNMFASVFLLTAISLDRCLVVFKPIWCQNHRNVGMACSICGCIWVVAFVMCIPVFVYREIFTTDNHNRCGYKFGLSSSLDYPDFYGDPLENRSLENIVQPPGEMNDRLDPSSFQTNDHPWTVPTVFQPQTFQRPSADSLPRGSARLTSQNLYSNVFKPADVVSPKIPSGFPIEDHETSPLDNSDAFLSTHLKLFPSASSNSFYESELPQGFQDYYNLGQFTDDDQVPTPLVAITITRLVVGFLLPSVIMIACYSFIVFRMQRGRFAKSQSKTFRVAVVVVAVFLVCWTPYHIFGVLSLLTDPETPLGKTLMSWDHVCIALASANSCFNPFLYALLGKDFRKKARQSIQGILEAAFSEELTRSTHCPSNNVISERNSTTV
METHOD: Displacement of [125I-C3a] from C3a receptor in human PBMC by scintillation counting
REPORTED_PROPERTY: IC50

> print(dat)
                                chem.smiles                              study.target  reported
1  NC(N)=NCCC[C@H](NC(=O)COCC(c1ccccc1)c1ccccc1)C(=O)O  C3a anaphylatoxin chemotactic receptor (Homo sapiens, UniProt Q16581)    125 nM
